Measured protein stability index by item
B1: VPS39 (parent)
chain: QQVKCIITEEKVCMVCKKKIGNSA

Variants of: B1
protocol: protein stability index of a GFP-peptide fusion (GPS, HEK-293T) (PSI 1-6); higher = more stable;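 further: lentivirally expressed fusions sorted by FACS into six bins by GFP to DsRed ratio, PSI derived from sequencing read proportions per bin multiplied by bin number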
experimentalConditions: c terminus: a fixed tail appended

# alteration, protein stability index
data = [
    ("T8F", 1.52),
    ("V12P", 3.44),
    ("K18Q", 2.5),
    ("Q1W", 1.98),
    ("N22Y", 1.99),
    ("A24P", 3.03),
    ("C5V", 2.22),
    ("I6C", 3.34),
    ("I6E", 3.96),
    ("G21P", 2.55),
    ("I7M", 3.54),
    ("K11D", 2.52),
    ("M14C", 4.14),
    ("K18P", 2.37),
    ("K19T", 2.66),
    ("K4R", 2.53),
    ("K4A", 2.72),
    ("E10H", 2.13),
    ("K19Q", 2.19),
    ("M14E", 3.61),
    ("K18R", 2.33),
    ("Q1S", 2.57),
]
